# Tested on: HBMEC cells
# assayText: Blood-brain barrier transport study (Transwell, UHPLC-q-TOF-MS)
# Format: in vitro ADME, human
# conditions: OP-1 extract 40 µg mL−1, 24 h; Te = CLower/CUpper × 100
measure: Te% ± SEM HBMEC Cells 24 h (%)
Enter your answer as a number in %; do not include the unit.

Incoming: Give recorded Te% ± SEM HBMEC Cells 24 h. C=C1C[C@@H](O)CC(C)(C)[C@]1(O)CC(=O)/C(C)=C/C=C/C(C)=C/C=C/C=C(C)/C=C/C=C(C)/C=C/[C@H]1C(C)=C[C@H](O)CC1(C)C
Outgoing: 8.9

Incoming: Give recorded Te% ± SEM HBMEC Cells 24 h. CC(/C=C/C=C(C)/C=C/[C@@]12O[C@]1(C)C[C@@H](O)CC2(C)C)=C\C=C\C=C(C)\C=C\C=C(C)\C=C\[C@@]12O[C@]1(C)C[C@@H](O)CC2(C)C
Outgoing: 13.9

---

# assayText: Neuroprotection against L-glutamate-induced toxicity in SH-SY5Y cells (MTT)
# conditions: human
measure: viability at 24 h, 23 mM (%)
Enter your answer as a number in %; do not include the unit.

Incoming: Give recorded viability at 24 h, 23 mM. N[C@@H](CCC(=O)O)C(=O)O [L-glutamate]
Outgoing: 47

---

# Tested on: HBMEC cells
# assayText: Blood-brain barrier transport study (Transwell, UHPLC-q-TOF-MS)
# Assay type: in vitro ADME, human
# conditions: OP-1 extract 40 µg mL−1, 24 h; Te = CLower/CUpper × 100
Marks after values point to notes of the source that are not given here.
Consider the following compounds; for each one, report its Te% ± SEM HBMEC Cells 24 h.

Incoming: Give recorded Te% ± SEM HBMEC Cells 24 h. CC1=C(C#C/C(C)=C/C=C/C(C)=C/C=C/C=C(C)/C=C/C=C(C)/C=C/C2=C(C)CCCC2(C)C)C(C)(C)C[C@H](O)C1 [Crocoxanthin]
Outgoing: 2.7 ± 0.6 ^a %

Incoming: Give recorded Te% ± SEM HBMEC Cells 24 h. CC1=C(C#C/C(C)=C/C=C/C(C)=C/C=C/C=C(C)/C=C/C=C(C)/C=C/C2=C(C)C[C@@H](O)CC2(C)C)C(C)(C)C[C@H](O)C1 [Diatoxanthin]
Outgoing: 8.1 ± 3.4 ^a %

Incoming: Give recorded Te% ± SEM HBMEC Cells 24 h. CC(=C/C=C/C(C)=C/C=C/C=C(C)/C=C/C=C(\C)C=C=C1C(C)(C)C[C@H](O)C[C@@]1(C)O)/C=C/[C@@]12O[C@]1(C)C[C@@H](O)CC2(C)C [Neoxanthin]
Outgoing: 13.2 ± 4.3 ^a %
